The following variants are shown together with reported self-cleavage values.
B1: CPEB3 Ribozyme (parent)
chain: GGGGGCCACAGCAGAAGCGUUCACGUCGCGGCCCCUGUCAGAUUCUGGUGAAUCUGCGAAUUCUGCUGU

Variants of: B1
Test: self-cleavage, relative activity (ratio to wild type); higher = more cleavage; co-transcriptional
Recorded Endpoint: self-cleavage

- Mutation Label: "C33U U38C"
  Recorded Endpoint: "self-cleavage"
  Recorded Measurement: 0.899
- Mutation Label: "C45G U49C"
  Recorded Endpoint: "self-cleavage"
  Recorded Measurement: 0.915
- Mutation Label: "C7U U64A"
  Recorded Endpoint: "self-cleavage"
  Recorded Measurement: 0.908
- Mutation Label: "U21A U61A"
  Recorded Endpoint: "self-cleavage"
  Recorded Measurement: 0.907
